- Tested on: Escherichia coli TOP10
- test.protocol: shrunken log2 fold change of peptide-encoding DNA abundance (4.5 h post-induction vs induction); higher = less antimicrobial activity (less host growth inhibition)
- condition.summary: time post-induction: 4.5 h; library: site-saturation at positions 5, 18, 19, 20
Please note: met applies when shrunken log2 fold change is 0.03 or greater, and not met applies otherwise.

INSERT INTO measurements (input_sequence, target_of_assay, class) VALUES
  ('RRIRRRPPRLPRPRPRPKLAPRP', 'Escherichia coli TOP10', 'met'),
  ('RRIRSRPPRLPRPRPRPYQCPRP', 'Escherichia coli TOP10', 'not met'),
  ('RRIRRRPPRLPRPRPRPANLPRP', 'Escherichia coli TOP10', 'met'),
  ('RRIRDRPPRLPRPRPRPNPCPRP', 'Escherichia coli TOP10', 'not met');

Could you now consider this next sequence?
-- ask Decide: is the reported value of shrunken log2 fold change for RRIRPRPPRLPRPRPRPDYHPRP equal to or greater than 0.03?
-- reply not met

* * *

- System: Escherichia coli TOP10
- test.protocol: shrunken log2 fold change of peptide-encoding DNA abundance (4.5 h post-induction vs induction); higher = less antimicrobial activity (less host growth inhibition)
- condition.summary: time post-induction: 4.5 h; library: site-saturation at positions 5, 18, 19, 20
reported.property: shrunken log2 fold change
Would you mind answering with just the numeric figure?

These recorded examples may help you get a feel for the data.
INSERT INTO assay_data (input_sequence, target_of_assay, measured_value) VALUES
  ('RRIRNRPPRLPRPRPRPRRWPRP', 'Escherichia coli TOP10', 0.701),
  ('RRIRKRPPRLPRPRPRPTVDPRP', 'Escherichia coli TOP10', -0.108);

Measured shrunken log2 fold change, RRIRIRPPRLPRPRPRPAMRPRP : 1.37

Measured shrunken log2 fold change, RRIRDRPPRLPRPRPRPQDMPRP : -0.628

Measured shrunken log2 fold change, RRIRFRPPRLPRPRPRPTTSPRP : 0.0366

* * *

- System: Escherichia coli TOP10
- test.protocol: shrunken log2 fold change of peptide-encoding DNA abundance (4.5 h post-induction vs induction); higher = less antimicrobial activity (less host growth inhibition)
- condition.summary: time post-induction: 4.5 h; library: site-saturation at positions 5, 18, 19, 20
reported.property: shrunken log2 fold change
Would you mind answering with just the numeric figure?

Measured shrunken log2 fold change, RRIRFRPPRLPRPRPRPTRQPRP : 0.298

Measured shrunken log2 fold change, RRIRYRPPRLPRPRPRPRFSPRP : -0.144

Measured shrunken log2 fold change, RRIRRRPPRLPRPRPRPQYFPRP : -0.0475

Measured shrunken log2 fold change, RRIRTRPPRLPRPRPRPDAIPRP : -0.141

Measured shrunken log2 fold change, RRIRARPPRLPRPRPRPPFHPRP : 0.386

Measured shrunken log2 fold change, RRIRPRPPRLPRPRPRPNPIPRP : -0.237

Measured shrunken log2 fold change, RRIRLRPPRLPRPRPRPKYSPRP : -0.622

Measured shrunken log2 fold change, RRIRARPPRLPRPRPRPDIGPRP : 0.0329

* * *

- Tested on: Escherichia coli TOP10
- test.protocol: shrunken log2 fold change of peptide-encoding DNA abundance (4.5 h post-induction vs induction); higher = less antimicrobial activity (less host growth inhibition)
- condition.summary: time post-induction: 4.5 h; library: site-saturation at positions 5, 18, 19, 20
Please note: satisfied applies when shrunken log2 fold change is -0.05 or greater, and not satisfied applies otherwise.

Examples from the recorded data:
INSERT INTO results (input_sequence, class) VALUES
  ('RRIRLRPPRLPRPRPRPLVCPRP', 'not satisfied'),
  ('RRIRGRPPRLPRPRPRPSAVPRP', 'satisfied'),
  ('RRIRKRPPRLPRPRPRPADNPRP', 'satisfied');

-- ask Decide: is the reported value of shrunken log2 fold change for RRIRRRPPRLPRPRPRPEQFPRP equal to or greater than -0.05?
-- reply satisfied

-- ask Decide: is the reported value of shrunken log2 fold change for RRIRGRPPRLPRPRPRPMNEPRP equal to or greater than -0.05?
-- reply satisfied

-- ask Decide: is the reported value of shrunken log2 fold change for RRIRARPPRLPRPRPRPWMQPRP equal to or greater than -0.05?
-- reply not satisfied

-- ask Decide: is the reported value of shrunken log2 fold change for RRIRWRPPRLPRPRPRPTPSPRP equal to or greater than -0.05?
-- reply satisfied

-- ask Decide: is the reported value of shrunken log2 fold change for RRIRPRPPRLPRPRPRPTAIPRP equal to or greater than -0.05?
-- reply satisfied

* * *

- System: Escherichia coli TOP10
- test.protocol: shrunken log2 fold change of peptide-encoding DNA abundance (4.5 h post-induction vs induction); higher = less antimicrobial activity (less host growth inhibition)
- condition.summary: time post-induction: 4.5 h; library: site-saturation at positions 5, 18, 19, 20
reported.property: shrunken log2 fold change
Would you mind answering with just the numeric figure?

INSERT INTO results (input_sequence, reported_property, measured_value) VALUES
  ('RRIRERPPRLPRPRPRPQWSPRP', 'shrunken log2 fold change', 0.0836);

Measured shrunken log2 fold change, RRIRRRPPRLPRPRPRPCARPRP : 0.395

Measured shrunken log2 fold change, RRIRRRPPRLPRPRPRPQGHPRP : 0.071

Measured shrunken log2 fold change, RRIRMRPPRLPRPRPRPGAWPRP : 0.122

* * *

- Test system: Escherichia coli TOP10
- test.protocol: shrunken log2 fold change of peptide-encoding DNA abundance (4.5 h post-induction vs induction); higher = less antimicrobial activity (less host growth inhibition)
- condition.summary: time post-induction: 4.5 h; library: site-saturation at positions 5, 18, 19, 20
// shrunken log2 fold change lookup, one value per entry
Would you mind answering with just the numeric figure?

These recorded examples may help you get a feel for the data.
INSERT INTO results (input_sequence, reported_property, measured_value) VALUES
  ('RRIRFRPPRLPRPRPRPNIFPRP', 'shrunken log2 fold change', -0.229),
  ('RRIRLRPPRLPRPRPRPTYTPRP', 'shrunken log2 fold change', -0.317),
  ('RRIRIRPPRLPRPRPRPKEHPRP', 'shrunken log2 fold change', -0.15),
  ('RRIRARPPRLPRPRPRPIPMPRP', 'shrunken log2 fold change', 0.0374),
  ('RRIRVRPPRLPRPRPRPANLPRP', 'shrunken log2 fold change', -0.163),
  ('RRIRARPPRLPRPRPRPKHKPRP', 'shrunken log2 fold change', 0.172),
  ('RRIRCRPPRLPRPRPRPCFAPRP', 'shrunken log2 fold change', -0.162);

Measured shrunken log2 fold change, RRIRQRPPRLPRPRPRPRLGPRP : 0.272

* * *

- Tested on: Escherichia coli TOP10
- test.protocol: shrunken log2 fold change of peptide-encoding DNA abundance (4.5 h post-induction vs induction); higher = less antimicrobial activity (less host growth inhibition)
- condition.summary: time post-induction: 4.5 h; library: site-saturation at positions 5, 18, 19, 20
// shrunken log2 fold change lookup, one value per entry
Would you mind answering with just the numeric figure?

These recorded examples may help you get a feel for the data.
INSERT INTO assay_data (input_sequence, measured_value) VALUES
  ('RRIRTRPPRLPRPRPRPINWPRP', -0.0841),
  ('RRIRHRPPRLPRPRPRPCEPPRP', 0.195),
  ('RRIRCRPPRLPRPRPRPARSPRP', 0.261),
  ('RRIRHRPPRLPRPRPRPHTYPRP', -0.79),
  ('RRIRCRPPRLPRPRPRPWKEPRP', 0.124);

Measured shrunken log2 fold change, RRIRCRPPRLPRPRPRPPVRPRP : 0.519

Measured shrunken log2 fold change, RRIRLRPPRLPRPRPRPVYYPRP : -0.633

Measured shrunken log2 fold change, RRIRCRPPRLPRPRPRPESKPRP : 0.198

Measured shrunken log2 fold change, RRIRHRPPRLPRPRPRPMPDPRP : -0.276

Measured shrunken log2 fold change, RRIRMRPPRLPRPRPRPEGQPRP : -0.00185

* * *

- Tested on: Escherichia coli TOP10;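 further: peptides expressed intracellularly from a pBAD plasmid library in pooled LB shake-flask culture, induced with 0.3% L-arabinose, DNA abundance read by NGS, three biological replicates, DESeq2 with apeglm shrinkage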
- test.protocol: shrunken log2 fold change of peptide-encoding DNA abundance (4.5 h post-induction vs induction); higher = less antimicrobial activity (less host growth inhibition)
- condition.summary: time post-induction: 4.5 h; library: site-saturation at positions 5, 18, 19, 20
reported.property: shrunken log2 fold change
Would you mind answering with just the numeric figure?

These recorded examples may help you get a feel for the data.
INSERT INTO assay_data (input_sequence, reported_property, measured_value) VALUES
  ('RRIRQRPPRLPRPRPRPTPAPRP', 'shrunken log2 fold change', 0.953),
  ('RRIRHRPPRLPRPRPRPPYDPRP', 'shrunken log2 fold change', -0.0114),
  ('RRIRWRPPRLPRPRPRPVFGPRP', 'shrunken log2 fold change', 0.159),
  ('RRIRHRPPRLPRPRPRPREPPRP', 'shrunken log2 fold change', 0.773),
  ('RRIRRRPPRLPRPRPRPMMGPRP', 'shrunken log2 fold change', 0.235),
  ('RRIRDRPPRLPRPRPRPIFNPRP', 'shrunken log2 fold change', -0.239);

Measured shrunken log2 fold change, RRIRIRPPRLPRPRPRPDFLPRP : -0.725

Measured shrunken log2 fold change, RRIRCRPPRLPRPRPRPAAIPRP : 0.0247

Cited source: the supplement of paper PMC9112550
